Tested on: Bipolaris sorokiniana
Assay: Antifungal activity against Bipolaris sorokiniana QDAU 7 by microplate XTT assay
Format: functional
Active and inactive are the calls of the source. No cut-off for these calls is given here.
ASSAY_METRIC: MIC

Sample answers from the record:
CC(C)[C@H]1CC[C@@H](C)[C@]2(O)CCC(C(=O)O)=C[C@H]12	inactive
CC(C)[C@H]1CCc2coc3cc(C(=O)O)cc1c23	1 µg/mL
C[C@@H]1[C@H](O)[C@@H](C)/C=C/C=C/C=C/C=C/C=C/C=C/C=C/[C@H](O[C@@H]2O[C@H](C)[C@@H](O)[C@H](N)[C@@H]2O)C[C@@H]2O[C@](O)(C[C@@H](O)C[C@@H](O)[C@H](O)CC[C@@H](O)C[C@@H](O)CC(=O)O[C@H]1C)C[C@H](O)[C@H]2C(=O)O	0.5 µg/mL
C=C1CC[C@H](C(C)C)[C@H]2C=C(C(=O)O)C[C@@H](O)[C@H]12	inactive
C[C@H](CO)[C@H]1CCc2coc3cc(C(=O)O)cc1c23	8 µg/mL

Required: MIC, one value per compound below.
1. CC(C)[C@H]1CCC(=O)c2cc(O)c(C(=O)O)cc21
2. C=C1CC[C@H](C(C)C)[C@@H]2C=C(C(=O)O)CC[C@H]12

inactive
inactive

---

Tested on: Colletotrichum gloeosporioides
Test: Antifungal activity against Colletotrichum gloeosporioides Penz-QDAU 9 by microplate XTT assay
Assay type: functional
The source made the active and inactive calls. The calls are words filed in the database; no cut-off is given here.
ASSAY_METRIC: MIC

C[C@@H]1[C@H](O)[C@@H](C)/C=C/C=C/C=C/C=C/C=C/C=C/C=C/[C@H](O[C@@H]2O[C@H](C)[C@@H](O)[C@H](N)[C@@H]2O)C[C@@H]2O[C@](O)(C[C@@H](O)C[C@@H](O)[C@H](O)CC[C@@H](O)C[C@@H](O)CC(=O)O[C@H]1C)C[C@H](O)[C@H]2C(=O)O [AMPHOTERICIN B]	0.5 µg/mL
C=C1CC[C@H](C(C)C)[C@H]2C=C(C(=O)O)C[C@@H](O)[C@H]12	inactive
C=C1CC[C@H](C(C)C)[C@@H]2C=C(C(=O)O)CC[C@H]12	inactive

---

Test system: Colletotrichum gloeosporioides
Assay: Antifungal activity against Colletotrichum gloeosporioides Penz-QDAU 9 by microplate XTT assay
Assay type: functional
Calls of active or inactive are those of the source. The calls are words filed in the database; no cut-off is given here.
ASSAY_METRIC: MIC

CC(C)[C@H]1CCc2coc3cc(C(=O)O)cc1c23	8 µg/mL
C[C@H](CO)[C@H]1CCc2coc3cc(C(=O)O)cc1c23	inactive
CC(C)[C@H]1CC[C@@H](C)[C@]2(O)CCC(C(=O)O)=C[C@H]12	inactive
CC(C)[C@H]1CCC(=O)c2cc(O)c(C(=O)O)cc21	inactive

---

Test system: Colletotrichum gloeosporioides
Assay: Antifungal activity against Glomerella cingulata QDAU 2 by microplate XTT assay
Assay type: functional
Calls of active or inactive are those of the source. The rule behind the calls is not given here.
ASSAY_METRIC: MIC

Example entries begin here.
CC(C)[C@H]1CCC(=O)c2cc(O)c(C(=O)O)cc21	inactive
CC(C)[C@H]1CC[C@@H](C)[C@]2(O)CCC(C(=O)O)=C[C@H]12	inactive
C=C1CC[C@H](C(C)C)[C@@H]2C=C(C(=O)O)CC[C@H]12	1 µg/mL
C[C@@H]1[C@H](O)[C@@H](C)/C=C/C=C/C=C/C=C/C=C/C=C/C=C/[C@H](O[C@@H]2O[C@H](C)[C@@H](O)[C@H](N)[C@@H]2O)C[C@@H]2O[C@](O)(C[C@@H](O)C[C@@H](O)[C@H](O)CC[C@@H](O)C[C@@H](O)CC(=O)O[C@H]1C)C[C@H](O)[C@H]2C(=O)O	0.5 µg/mL
C=C1CC[C@H](C(C)C)[C@H]2C=C(C(=O)O)C[C@@H](O)[C@H]12	inactive
C[C@H](CO)[C@H]1CCc2coc3cc(C(=O)O)cc1c23	4 µg/mL

The record that follows has no MIC shown yet.
Given the compound CC(C)[C@H]1CCc2coc3cc(C(=O)O)cc1c23 , what is its reported MIC?
1 µg/mL

---

System: Escherichia coli
Experiment: Antibacterial activity against Escherichia coli EMBLC 1 by microplate XTT assay
Assay type: functional
Calls of active or inactive are those of the source. No cut-off for these calls is given here.
ASSAY_METRIC: MIC

C=C1CC[C@H](C(C)C)[C@H]2C=C(C(=O)O)C[C@@H](O)[C@H]12	inactive
CC(C)[C@H]1CCC(=O)c2cc(O)c(C(=O)O)cc21	inactive
C[C@H](CO)[C@H]1CCc2coc3cc(C(=O)O)cc1c23	16 µg/mL
O=C(N[C@H](CO)[C@H](O)c1ccc([N+](=O)[O-])cc1)C(Cl)Cl	2 µg/mL
CC(C)[C@H]1CC[C@@H](C)[C@]2(O)CCC(C(=O)O)=C[C@H]12	inactive

Hey, can you go through the list below and give me MIC for every item?
1. C=C1CC[C@H](C(C)C)[C@@H]2C=C(C(=O)O)CC[C@H]12
2. CC(C)[C@H]1CCc2coc3cc(C(=O)O)cc1c23

8 µg/mL
8 µg/mL

Where do these numbers come from? They come from ChEMBL document CHEMBL4334479.
